- Measured target: CDK9 (Homo sapiens, UniProt P50750)
- Construct: NCIH211 cells with endogenously tagged N-terminal CDK9-HiBit; endogenous in cells; host or cells: NCIH211 cells (endogenous CDK9 locus tagged with HiBit)
- Sequence (P50750 whole entry): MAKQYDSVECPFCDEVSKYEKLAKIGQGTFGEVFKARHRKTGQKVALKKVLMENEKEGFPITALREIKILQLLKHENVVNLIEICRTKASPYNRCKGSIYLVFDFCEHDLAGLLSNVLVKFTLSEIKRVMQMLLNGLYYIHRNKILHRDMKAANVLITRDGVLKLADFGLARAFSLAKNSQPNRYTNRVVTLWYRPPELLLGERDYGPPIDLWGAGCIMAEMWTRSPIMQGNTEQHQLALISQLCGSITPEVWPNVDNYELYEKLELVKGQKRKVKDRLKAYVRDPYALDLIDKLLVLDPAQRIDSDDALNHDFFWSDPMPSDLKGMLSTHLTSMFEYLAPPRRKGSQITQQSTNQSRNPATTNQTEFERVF
- Sequence (O60563 whole entry partner): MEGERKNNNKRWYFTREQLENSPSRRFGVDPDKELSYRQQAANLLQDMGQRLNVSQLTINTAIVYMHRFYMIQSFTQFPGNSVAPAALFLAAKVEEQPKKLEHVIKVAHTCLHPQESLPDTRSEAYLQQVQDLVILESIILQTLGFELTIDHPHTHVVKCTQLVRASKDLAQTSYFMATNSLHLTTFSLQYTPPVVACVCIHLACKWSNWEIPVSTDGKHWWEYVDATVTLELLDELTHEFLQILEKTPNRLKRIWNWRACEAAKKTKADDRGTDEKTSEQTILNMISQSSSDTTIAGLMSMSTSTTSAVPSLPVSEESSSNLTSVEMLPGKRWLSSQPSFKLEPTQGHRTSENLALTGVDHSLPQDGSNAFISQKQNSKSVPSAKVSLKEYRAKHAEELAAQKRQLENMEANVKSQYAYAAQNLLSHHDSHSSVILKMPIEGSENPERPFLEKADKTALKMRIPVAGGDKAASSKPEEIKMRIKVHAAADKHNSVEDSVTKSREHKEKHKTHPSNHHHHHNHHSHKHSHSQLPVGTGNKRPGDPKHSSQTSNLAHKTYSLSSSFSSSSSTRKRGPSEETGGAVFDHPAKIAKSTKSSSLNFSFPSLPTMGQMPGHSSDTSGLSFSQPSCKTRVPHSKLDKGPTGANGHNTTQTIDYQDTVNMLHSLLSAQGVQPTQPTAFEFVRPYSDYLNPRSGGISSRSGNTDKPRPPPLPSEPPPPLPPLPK
- Procedure summary: CDK9 degradation by HiBit assay, NCIH211 cells
- Type: cell-based
- Assay context: NCIH211 cells with endogenously tagged N-terminal CDK9-HiBit, 24 hours incubation; read-out: HiBit-NCIH211.2 DC50
Value kind: DC50

Some solved cases for reference:
# Compound, DC50
measured = [
    ("CCC(CC)c1cc(N[C@H]2CC[C@H](NCC(=O)NCCCc3cn(CCOCCOCCOc4cc(-c5scnc5C)ccc4CNC(=O)[C@@H]4C[C@@H](O)CN4C(=O)[C@H](C(C)C)N4Cc5ccccc5C4=O)nn3)C2)n2ncc(Cl)c2n1", "< 10 µM"),
    ("C/C=C(\\CC)c1cc(N[C@H]2CC[C@H](NCC(=O)N3CCN(CCCCNc4cccc5c4C(=O)N(C4CCC(=O)NC4=O)C5=O)CC3)C2)n2nccc2n1 (some centres unmarked)", "< 0.1 µM"),
    ("CCC(CC)c1cc(N[C@H]2CC[C@H](NCC(C)N3CCN(CCNc4cccc5c4C(=O)N(C4CCC(=O)NC4=O)C5=O)CC3)C2)n2nccc2n1 (some centres unmarked)", "< 10 µM"),
    ("CCC(CC)c1cc(N[C@H]2CC[C@H](NCC(=O)NCCCc3cn(CCOCCOCC(=O)N[C@H](C(=O)N4C[C@H](O)C[C@H]4C(=O)NCc4ccc(-c5scnc5C)cc4)C(C)(C)C)nn3)C2)n2ncc(Cl)c2n1", "> 10 µM"),
]

API: the following record is the query input.
Dear colleague, I am looking for the recorded DC50 of the following compound: `CCC(CC)c1cc(N[C@H]2CC[C@H](NCC(=O)NCCCc3cn(CCOCCOCCOCCOc4cc(-c5scnc5C)ccc4CNC(=O)[C@@H]4C[C@@H](O)CN4C(=O)[C@H](C(C)C)N4Cc5ccccc5C4=O)nn3)C2)n2ncc(Cl)c2n1`
< 10 µM

* * *

- Measured target: CDK9 (Homo sapiens, UniProt P50750)
- Construct: NCIH211 cells with endogenously tagged N-terminal CDK9-HiBit; endogenous in cells; host or cells: NCIH211 cells (endogenous CDK9 locus tagged with HiBit)
- Procedure summary: CDK9 degradation by HiBit assay, NCIH211 cells
- Format: cell-based
- Assay context: NCIH211 cells with endogenously tagged N-terminal CDK9-HiBit, 24 hours incubation; read-out: HiBit-NCIH211.2 DC50
Record form. Attribute: DC50. Fill in for each entry.

Some solved cases for reference:
# Compound, Measured target, DC50
rows = [
    ("CCC(CC)c1cc(N[C@H]2CC[C@H](NC(=O)COCCOCCNC(=O)COc3cccc4c3C(=O)N(C3CCC(=O)NC3=O)C4=O)C2)n2ncc(Cl)c2n1 (stereo partly shown) [Compound 4.0]", "CDK9 (Homo sapiens, UniProt P50750)", "> 10 µM"),
    ("CCC(CC)c1cc(N[C@H]2CC[C@H](NCc3cn(CCOCCOCCOCCNc4cccc5c4C(=O)N(C4CCC(=O)NC4=O)C5=O)nn3)C2)n2nccc2n1 (stereo partly shown) [Compound 10.0]", "CDK9 (Homo sapiens, UniProt P50750)", "< 10 µM"),
    ("CCC(CC)c1cc(N[C@H]2CC[C@H](NCC(=O)NCCCc3cn(CCOCCNc4cccc5c4C(=O)N(C4CCC(=O)NC4=O)C5=O)nn3)C2)n2ncc(Cl)c2n1 (stereo partly shown) [Compound 23.0]", "CDK9 (Homo sapiens, UniProt P50750)", "< 10 µM"),
    ("CCC(CC)c1cc(N[C@H]2CC[C@H](NCC(=O)NCCOCCOCCOCCNc3cccc4c3C(=O)N(C3CCC(=O)NC3=O)C4=O)C2)n2nccc2n1 (stereo partly shown) [Compound 5.0]", "CDK9 (Homo sapiens, UniProt P50750)", "< 10 µM"),
]

Report DC50 for every entry below.
1. CCC(CC)c1cc(N[C@H]2CC[C@H](NCC(=O)N3CCN(CCNc4cccc5c4C(=O)N(C4CCC(=O)NC4=O)C5=O)CC3)C2)n2ncc(Cl)c2n1 (stereo partly shown) [Compound 49.0]
2. CCC(CC)c1cc(N[C@H]2CC[C@H](NCCOCCOCCn3cc(COCCOCC(=O)N[C@H](C(=O)N4C[C@H](O)C[C@H]4C(=O)NCc4ccc(-c5scnc5C)cc4)C(C)(C)C)nn3)C2)n2nccc2n1 [Compound 14.0]
3. CCC(CC)c1cc(N[C@H]2CC[C@H](NCC(=O)NCc3cn(CCOCCOCCOCCOc4cc(-c5scnc5C)ccc4CNC(=O)[C@@H]4C[C@@H](O)CN4C(=O)[C@H](C(C)C)N4Cc5ccccc5C4=O)nn3)C2)n2nccc2n1 [Compound 31.0]

["< 0.1 µM", "> 10 µM", "> 10 µM"]

Data origin: patent US20250188084A1
